- ASSAYED TARGET: c-Kit (Homo sapiens)
- Construct: whole cytoplasmic domain of c-Kit (aa 544-976); made in house; host or cells: Sf9 or High Five (baculovirus)
- Sequence (P10721 544-976): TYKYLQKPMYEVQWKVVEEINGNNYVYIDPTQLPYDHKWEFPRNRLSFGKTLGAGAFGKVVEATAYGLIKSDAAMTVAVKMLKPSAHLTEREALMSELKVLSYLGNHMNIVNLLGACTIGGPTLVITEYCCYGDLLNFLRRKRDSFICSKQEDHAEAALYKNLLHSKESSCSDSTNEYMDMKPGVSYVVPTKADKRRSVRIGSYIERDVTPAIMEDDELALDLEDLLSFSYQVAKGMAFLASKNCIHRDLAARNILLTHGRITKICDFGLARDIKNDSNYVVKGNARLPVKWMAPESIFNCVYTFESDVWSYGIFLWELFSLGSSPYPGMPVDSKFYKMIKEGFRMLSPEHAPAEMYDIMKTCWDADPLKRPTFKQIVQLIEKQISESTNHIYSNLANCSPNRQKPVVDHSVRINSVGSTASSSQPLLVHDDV
- EXPERIMENTAL PROTOCOL: c-kit kinase inhibition
- Assay type: biochemical
- TEST CONDITIONS: Table 4
pIC50: −log10 of the molar value.
MEASUREMENT NAME: pIC50

SMI | VALUE
CN1CCN(c2ccc(-c3cnn4c(N)c(-c5ccsc5)cnc34)cc2)CC1 | > 5.00
COc1cccc(-c2cnc3c(-c4cccc(N5CCN(C)CC5)c4)cnn3c2N)c1 | > 5.00
CN1CCN(c2ccc(-c3cnn4c(N)c(-c5cccc(O)c5)cnc34)cc2)CC1 | > 5.00
